Measured GELATION values are reported for all entries that follow.
Assay: Peptide hydrogel formation, vial-inverting method
Format: physicochemical
Set-up: key: 0: no hydrogel; 1: hydrogel
Details: peptide concentration 120 mM; vial-inverting method; 1 = hydrogel, 0 = no hydrogel
Text: After validating the efficiency of APHC in predicting tetrapeptide hydrogels, we detailed the phase state of 165 synthesized tetrapeptides and the observed assembly behavior in an aqueous solution. This work defines hydrogel formation as a self-supporting, non-flowing mixture of water and hydrogelator by the vial-inverting method. […]
Where a SMILES comes first, the peptide text is derived from it.
Answer as a number with no unit attached.

Study these solved cases before continuing.
COMPOUND: N[C@@H](Cc1ccccc1)C(=O)NCC(=O)N[C@@H](Cc1c[nH]c2ccccc12)C(=O)N[C@@H](Cc1c[nH]c2ccccc12)C(=O)O [FGWW] (H-FGWW-OH)
REPORTED MEASUREMENT: 0

COMPOUND: CC[C@H](C)[C@H](NC(=O)[C@@H](NC(=O)[C@H](C)N)C(C)C)C(=O)N[C@@H](CCC(N)=O)C(=O)O [AVIQ] (H-AVIQ-OH)
REPORTED MEASUREMENT: 0

COMPOUND: O=C(O)[C@H](Cc1ccc(O)cc1)NC(=O)[C@H](Cc1c[nH]c2ccccc12)NC(=O)[C@H](Cc1c[nH]c2ccccc12)NC(=O)[C@@H]1CCCN1 [PWWY] (H-PWWY-OH)
REPORTED MEASUREMENT: 0

COMPOUND: NCCCC[C@H](NC(=O)[C@H](CCCCN)NC(=O)[C@H](CCCCN)NC(=O)[C@@H](N)CCCCN)C(=O)O [KKKK] (H-KKKK-OH)
REPORTED MEASUREMENT: 0

Measured GELATION of CC(C)C[C@H](N)C(=O)N[C@H](C(=O)N[C@@H](Cc1c[nH]c2ccccc12)C(=O)N[C@@H](Cc1ccccc1)C(=O)O)[C@@H](C)O [LTWF] (H-LTWF-OH) : 0

Measured GELATION of CC(C)[C@H](NC(=O)[C@@H](N)CC(N)=O)C(=O)N[C@@H](Cc1ccccc1)C(=O)N[C@@H](Cc1c[nH]cn1)C(=O)O [NVFH] (H-NVFH-OH) : 0

Measured GELATION of O=C(O)[C@H](Cc1c[nH]c2ccccc12)NC(=O)[C@H](Cc1ccc(O)cc1)NC(=O)[C@H](Cc1c[nH]c2ccccc12)NC(=O)[C@@H]1CCCN1 [PWYW] (H-PWYW-OH) : 1

Measured GELATION of CC[C@H](C)[C@H](NC(=O)[C@H](Cc1ccc(O)cc1)NC(=O)[C@H](Cc1ccc(O)cc1)NC(=O)[C@@H]1CCCN1)C(=O)O [PYYI] (H-PYYI-OH) : 0

Measured GELATION of N[C@@H](Cc1ccccc1)C(=O)N[C@@H](CS)C(=O)N[C@@H](Cc1c[nH]c2ccccc12)C(=O)N[C@@H](Cc1c[nH]c2ccccc12)C(=O)O [FCWW] (H-FCWW-OH) : 1

----------
Measured Concentration values are reported for all entries that follow.
Experiment: Peptide hydrogel formation, vial-inverting method
Format: physicochemical
Conditions: concentration at which the state was recorded: lowest of 30, 60, 90, 120 mM that gave a gel; 120 mM for non-gelating peptides
Where a SMILES comes first, the peptide text is derived from it.
All answers are understood in µM, so give the number only.

Study these solved cases before continuing.
MOLECULE: CC(C)C[C@H](NC(=O)[C@@H](N)Cc1c[nH]c2ccccc12)C(=O)N[C@H](C(=O)N[C@@H](Cc1c[nH]c2ccccc12)C(=O)O)C(C)C [WLVW] (H-WLVW-OH)
Concentration / µM: 90000
--
MOLECULE: CC(C)C[C@H](NC(=O)[C@H](C)NC(=O)[C@@H](N)CC(C)C)C(=O)N[C@@H](CCCNC(=N)N)C(=O)O [LALR] (H-LALR-OH)
Concentration / µM: 120000
--
MOLECULE: CC[C@H](C)[C@H](NC(=O)[C@@H](NC(=O)[C@@H](N)Cc1c[nH]c2ccccc12)[C@@H](C)CC)C(=O)N[C@@H](Cc1ccccc1)C(=O)O [WIIF] (H-WIIF-OH)
Concentration / µM: 30000
--
MOLECULE: N[C@@H](Cc1ccccc1)C(=O)N[C@@H](CS)C(=O)N[C@@H](Cc1c[nH]c2ccccc12)C(=O)N[C@@H](Cc1c[nH]c2ccccc12)C(=O)O [FCWW] (H-FCWW-OH)
Concentration / µM: 120000
--
MOLECULE: CC(C)[C@H](NC(=O)CN)C(=O)N[C@@H](Cc1ccccc1)C(=O)N[C@@H](Cc1ccc(O)cc1)C(=O)O [GVFY] (H-GVFY-OH)
Concentration / µM: 30000

Proceed to the following item.
Measured Concentration of CC(C)[C@H](NC(=O)[C@@H](N)CC(N)=O)C(=O)N[C@@H](Cc1ccccc1)C(=O)N[C@@H](Cc1c[nH]cn1)C(=O)O [NVFH] (H-NVFH-OH) : 120000

----------
Test: Transmission electron microscope (negative staining) of peptide assemblies
Settings: TEM, negative staining with uranyl acetate, 120 kV; line of the table gives 120 mM
Where a SMILES comes first, the peptide text is derived from it.
METRIC: Morphology

COMPOUND: C[C@H](N)C(=O)N[C@@H](C)C(=O)N[C@@H](C)C(=O)N[C@@H](C)C(=O)O [AAAA] (H-AAAA-OH)
REPORTED MEASUREMENT: blank
--
COMPOUND: NCCCC[C@H](NC(=O)[C@H](Cc1ccccc1)NC(=O)[C@H](Cc1ccccc1)NC(=O)[C@@H](N)CCC(=O)O)C(=O)O [EFFK] (H-EFFK-OH)
REPORTED MEASUREMENT: aggregates
--
COMPOUND: CC[C@H](C)[C@H](NC(=O)[C@@H](NC(=O)[C@H](Cc1c[nH]cn1)NC(=O)[C@@H](N)CC(C)C)[C@@H](C)CC)C(=O)O [LHII] (H-LHII-OH)
REPORTED MEASUREMENT: aggregates
--
COMPOUND: CC(C)[C@H](N)C(=O)N[C@@H](Cc1ccc(O)cc1)C(=O)N[C@H](C(=O)N[C@@H](Cc1ccccc1)C(=O)O)[C@@H](C)O [VYTF] (H-VYTF-OH)
REPORTED MEASUREMENT: particle
--
COMPOUND: N[C@@H](CC(=O)O)C(=O)N[C@@H](CC(=O)O)C(=O)N[C@@H](CC(=O)O)C(=O)N[C@@H](CC(=O)O)C(=O)O [DDDD] (H-DDDD-OH)
REPORTED MEASUREMENT: sphere
--
COMPOUND: N[C@@H](Cc1c[nH]c2ccccc12)C(=O)N[C@@H](Cc1ccccc1)C(=O)N[C@@H](Cc1c[nH]cn1)C(=O)N1CCC[C@H]1C(=O)O [WFHP] (H-WFHP-OH)
REPORTED MEASUREMENT: aggregates

Measured Morphology of CSCC[C@H](N)C(=O)N[C@H](C(=O)N[C@@H](CCC(N)=O)C(=O)NCC(=O)O)C(C)C [MVQG] (H-MVQG-OH) : aggregates

Measured Morphology of NCCCC[C@H](NC(=O)[C@H](CCCCN)NC(=O)[C@H](CCC(=O)O)NC(=O)[C@@H](N)CCC(=O)O)C(=O)O [EEKK] (H-EEKK-OH) : blank

Measured Morphology of O=C(CNC(=O)[C@@H]1CCCN1)N[C@@H](Cc1c[nH]c2ccccc12)C(=O)N[C@@H](Cc1c[nH]c2ccccc12)C(=O)O [PGWW] (H-PGWW-OH) : aggregates

----------
Assay: Peptide hydrogel formation, vial-inverting method
Type: physicochemical
Conditions: concentration at which the state was recorded: lowest of 30, 60, 90, 120 mM that gave a gel; 120 mM for non-gelating peptides
Where a SMILES comes first, the peptide text is derived from it.
METRIC: Concentration (µM)
All answers are understood in µM, so give the number only.

Study these solved cases before continuing.
MOLECULE: CC[C@H](C)[C@H](NC(=O)[C@@H](NC(=O)[C@H](Cc1c[nH]cn1)NC(=O)[C@@H](N)CCC(N)=O)[C@@H](C)CC)C(=O)O [QHII] (H-QHII-OH)
Concentration, µM: 120000

MOLECULE: CC(C)C[C@H](NC(=O)[C@@H](N)CC(C)C)C(=O)N[C@@H](Cc1c[nH]cn1)C(=O)N[C@@H](Cc1ccccc1)C(=O)O [LLHF] (H-LLHF-OH)
Concentration, µM: 30000

MOLECULE: CC[C@H](C)[C@H](NC(=O)[C@@H](NC(=O)[C@@H](N)Cc1c[nH]c2ccccc12)[C@@H](C)O)C(=O)N[C@@H](Cc1ccccc1)C(=O)O [WTIF] (H-WTIF-OH)
Concentration, µM: 30000

MOLECULE: N[C@@H](CS)C(=O)N[C@@H](Cc1c[nH]c2ccccc12)C(=O)N[C@@H](Cc1ccccc1)C(=O)N[C@@H](CO)C(=O)O [CWFS] (H-CWFS-OH)
Concentration, µM: 30000

MOLECULE: CC(C)[C@H](NC(=O)[C@@H](NC(=O)[C@H](C)NC(=O)[C@@H](N)Cc1c[nH]c2ccccc12)C(C)C)C(=O)O [WAVV] (H-WAVV-OH)
Concentration, µM: 60000

Proceed to the following item.
Measured Concentration of CC[C@H](C)[C@H](NC(=O)[C@H](CC(C)C)NC(=O)[C@@H](NC(=O)[C@@H](N)CC(C)C)[C@@H](C)O)C(=O)O [LTLI] (H-LTLI-OH) : 30000
